Target: Tyrosine-protein kinase Srms (Homo sapiens);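 further: reported value is a mean of the inhibition readings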
Conditions: at 0.1 µM
Observable: inhibition (%)
Use % as the unit, but write only the number.

According to the records, this compound Cc1ccc(NC(=O)c2ccnc(N3CCCC3)c2)cc1-c1ccc(C(=O)NCC2CC2)cc1 displays inhibition of -3.02

inhibition measured on CCn1c(-c2nonc2N)nc2cncc(C(=O)N3CC[C@H](N)C3)c21 = 0.37

Recorded inhibition (compound CCCN1CCC=C(c2ccc(Nc3nc(Nc4ccccc4C(N)=O)c4cc[nH]c4n3)c(C)c2)C1 ): -3.15

Kindly note the recorded inhibition for O=C1NC(=O)C(N2CCc3ccccc32)=C1c1ccc(Cl)cc1 , which is -2.77

Entry under test: COc1cc2ncn(-c3cc(O[C@@H](C)c4ccccc4Cl)c(C(N)=O)s3)c2cc1OC . Its inhibition was -3.6

---

Biological target: Mast/stem cell growth factor receptor Kit (Homo sapiens) (UniProt P10721);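 further: values are mean inhibition of KIT, from the GSK PKIS dataset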
Sequence (P10721 whole entry): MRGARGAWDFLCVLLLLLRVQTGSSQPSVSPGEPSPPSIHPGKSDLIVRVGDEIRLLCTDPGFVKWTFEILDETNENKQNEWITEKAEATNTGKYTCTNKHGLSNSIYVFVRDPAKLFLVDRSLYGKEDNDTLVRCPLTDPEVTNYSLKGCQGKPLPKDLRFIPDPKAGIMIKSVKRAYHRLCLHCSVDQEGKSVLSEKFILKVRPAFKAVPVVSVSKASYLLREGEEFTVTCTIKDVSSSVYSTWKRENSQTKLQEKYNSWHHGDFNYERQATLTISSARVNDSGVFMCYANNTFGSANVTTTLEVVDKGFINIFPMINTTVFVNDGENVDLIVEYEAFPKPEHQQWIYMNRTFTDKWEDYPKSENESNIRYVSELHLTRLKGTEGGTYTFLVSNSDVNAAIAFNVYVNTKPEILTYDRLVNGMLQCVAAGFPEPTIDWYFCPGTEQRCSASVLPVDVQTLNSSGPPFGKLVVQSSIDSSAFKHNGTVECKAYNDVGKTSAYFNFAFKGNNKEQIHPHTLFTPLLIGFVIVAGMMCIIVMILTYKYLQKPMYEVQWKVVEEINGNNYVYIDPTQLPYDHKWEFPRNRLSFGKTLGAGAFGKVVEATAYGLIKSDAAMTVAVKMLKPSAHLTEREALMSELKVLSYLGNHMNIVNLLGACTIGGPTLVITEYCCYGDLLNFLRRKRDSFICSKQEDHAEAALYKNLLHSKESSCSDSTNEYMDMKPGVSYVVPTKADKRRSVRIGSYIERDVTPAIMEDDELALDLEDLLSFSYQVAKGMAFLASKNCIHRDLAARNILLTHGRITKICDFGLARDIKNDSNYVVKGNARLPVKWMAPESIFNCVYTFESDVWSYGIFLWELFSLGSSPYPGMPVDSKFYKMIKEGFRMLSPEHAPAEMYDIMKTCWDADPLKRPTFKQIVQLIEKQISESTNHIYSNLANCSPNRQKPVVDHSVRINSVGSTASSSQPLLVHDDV
Conditions: at 0.1 µM
Observable: inhibition (%)
// note: answer is a bare numeric in %

inhibition on Mast/stem cell growth factor receptor Kit (Homo sapiens) (UniProt P10721) for Nc1ncnc2occ(-c3ccc(NC(=O)Nc4cccc(C(F)(F)F)c4)cc3)c12 is 94.9

Summary line: COc1cccc(-n2ncc3c(N/N=C/c4cccc(F)c4)ncnc32)c1 , Mast/stem cell growth factor receptor Kit (Homo sapiens) (UniProt P10721), reported inhibition = 3.25

GET /values?item= Cc1cc(O)cc(C)c1/C=C/c1cncc(-c2nn[nH]n2)c1 &system= Mast/stem cell growth factor receptor Kit (Homo sapiens) (UniProt P10721) returns inhibition: 11.9

Readout inhibition for Cn1cc(C=C2C(=O)Nc3cccnc32)c2ccccc21 , test system Mast/stem cell growth factor receptor Kit (Homo sapiens) (UniProt P10721), was 11.3

I looked up CC1=C(C(=O)Nc2ccc3[nH]ncc3c2)C(c2ccc(F)cc2)NC(=O)N1 (stereo unspecified) and its inhibition for Mast/stem cell growth factor receptor Kit (Homo sapiens) (UniProt P10721) was 5.14

Summary: Cc1nnc(-c2ccc(C)c(-c3ccc(C(=O)Nc4cccc(C#N)c4)cc3)c2)o1 , Mast/stem cell growth factor receptor Kit (Homo sapiens) (UniProt P10721), inhibition = 5.68

// compound O=C(Nc1n[nH]c2nc(-c3ccco3)c(Br)cc12)C1CC1 , assay Mast/stem cell growth factor receptor Kit (Homo sapiens) (UniProt P10721), inhibition value: 6.02

Lab note: compound Cc1ccc(C(=O)NC2CCCCC2)cc1-c1ccc(C(=O)NCC2CC2)cc1 tested on Mast/stem cell growth factor receptor Kit (Homo sapiens) (UniProt P10721); recorded inhibition was 4.54

Noted inhibition for CCn1c(-c2nonc2N)nc2cncc(C(=O)N3CCNCC3)c21 , tested on Mast/stem cell growth factor receptor Kit (Homo sapiens) (UniProt P10721): 7.95

Hey, Mast/stem cell growth factor receptor Kit (Homo sapiens) (UniProt P10721) data for CC1=C(C(=O)Nc2ccc3[nH]ncc3c2)C(c2ccc(Cl)c(Cl)c2)CC(=O)N1 (stereo unspecified) : inhibition came out at 3.22

// inhibition (Mast/stem cell growth factor receptor Kit (Homo sapiens) (UniProt P10721)) for COc1ccc(-c2ccncc2)cc1C(N)=O = 3.75

Bench note, Mast/stem cell growth factor receptor Kit (Homo sapiens) (UniProt P10721): Nc1ncnc2occ(-c3ccc(NC(=O)Nc4cc(C(F)(F)F)cc(C(F)(F)F)c4)cc3)c12 , inhibition reads 29

Observed inhibition on Mast/stem cell growth factor receptor Kit (Homo sapiens) (UniProt P10721), entry O=C1NC(=O)C(N2CCc3ccccc32)=C1c1ccc(Cl)cc1 , equals 6.61

Bench note, Mast/stem cell growth factor receptor Kit (Homo sapiens) (UniProt P10721): COC(=O)Nc1nc2cc(Oc3cccc(NC(=O)Nc4cc(C(F)(F)F)ccc4F)c3)ccc2[nH]1 , inhibition reads 4.16

Given the compound CS(=O)(=O)CCNCc1nc(-c2ccc3ncnc(Nc4ccc(F)c(Cl)c4)c3c2)cs1 and test system Mast/stem cell growth factor receptor Kit (Homo sapiens) (UniProt P10721), the measured inhibition is 3.87

Lab note: compound CC1=C(C(=O)Nc2ccc3[nH]ncc3c2)C(c2ccc3ccccc3c2)CC(=O)N1 (stereo unspecified) tested on Mast/stem cell growth factor receptor Kit (Homo sapiens) (UniProt P10721); recorded inhibition was 2.51

Per the reported Mast/stem cell growth factor receptor Kit (Homo sapiens) (UniProt P10721) data, COc1cc(C=NNc2ncnc3c2cnn3-c2ccccc2)ccc1O has inhibition of 15

With Mast/stem cell growth factor receptor Kit (Homo sapiens) (UniProt P10721) as the test system, CS(=O)(=O)CCNCc1ccc(-c2ccc3ncnc(Nc4ccc(OCc5ccccc5)c(Cl)c4)c3c2)o1 showed inhibition of 2.73

The compound CS(=O)(=O)CCNCc1ccc(-c2ccc3ncnc(Nc4ccc(OCc5cccc(F)c5)c(C(F)(F)F)c4)c3c2)o1 on Mast/stem cell growth factor receptor Kit (Homo sapiens) (UniProt P10721): inhibition was 3.96

Record for CCN1CCC(CC(=O)Nc2n[nH]c3nc(-c4cccs4)c(Br)cc23)CC1 under target or system Mast/stem cell growth factor receptor Kit (Homo sapiens) (UniProt P10721): inhibition reported as -4.07

inhibition for Mast/stem cell growth factor receptor Kit (Homo sapiens) (UniProt P10721) with input CCCN1CCC(Oc2cc(Nc3nc(Nc4cccc(F)c4C(N)=O)c4cc[nH]c4n3)c(OC)cc2Cl)CC1 equals -0.76

Tested on Mast/stem cell growth factor receptor Kit (Homo sapiens) (UniProt P10721): NCc1ccc(-c2nc(-c3ccc(Cl)c(O)c3)c(-c3ccncc3)[nH]2)cc1 . Observed inhibition: 0.79

Kindly note: Mast/stem cell growth factor receptor Kit (Homo sapiens) (UniProt P10721), CCn1c(-c2nonc2N)nc2c(C#CC(C)(C)O)nc(OC[C@@H](N)c3ccccc3)cc21 , inhibition value reported: -1.3

Sample CC(C)=Cc1cccc2c1/C(=N/Nc1ccc(S(N)(=O)=O)cc1)C(=O)N2 , system: Mast/stem cell growth factor receptor Kit (Homo sapiens) (UniProt P10721). Its inhibition is 14.1

Value sought: inhibition, system Mast/stem cell growth factor receptor Kit (Homo sapiens) (UniProt P10721), item Fc1cccc(COc2ccc(Nc3ncnc4cc(-c5ccc[nH]5)sc34)cc2Cl)c1 . Result: 2.16

// inhibition (Mast/stem cell growth factor receptor Kit (Homo sapiens) (UniProt P10721)) for COc1ccc(-c2coc3ncnc(N)c23)cc1 = 5.17

Field inhibition (Mast/stem cell growth factor receptor Kit (Homo sapiens) (UniProt P10721)), entry N#Cc1c(NC(=O)c2cccc3ccccc23)sc2c1CCCC2 : 2.71

The reported Mast/stem cell growth factor receptor Kit (Homo sapiens) (UniProt P10721) inhibition of [O-][S+]1CCN(Cc2ccc(-c3ccc4ncnc(Nc5ccc(OCc6ccccc6)c(F)c5)c4c3)o2)CC1 is 2.02

Value sought: inhibition, system Mast/stem cell growth factor receptor Kit (Homo sapiens) (UniProt P10721), item COC(=O)Nc1nc2cc(Oc3ccc(NC(=O)Nc4cccc(C(=O)O)c4)cc3)ccc2[nH]1 . Result: 2.05

// returns inhibition for O=C1NC(=O)C(c2ccc(Cl)cc2)=C1Nc1ccc(Cl)c(C(=O)O)c1 with Mast/stem cell growth factor receptor Kit (Homo sapiens) (UniProt P10721); value = -0.92

The compound CCn1c(-c2nonc2N)nc2c(C#CC(C)(C)O)nc(CN3CCCC3)cc21 , when measured on Mast/stem cell growth factor receptor Kit (Homo sapiens) (UniProt P10721), yielded inhibition of -3.09

---

Target: Receptor tyrosine-protein kinase erbB-2 (Homo sapiens) (UniProt P04626);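 further: each value is the mean percent inhibition of ERBB2 over replicate measurements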
Sequence (P04626 whole entry): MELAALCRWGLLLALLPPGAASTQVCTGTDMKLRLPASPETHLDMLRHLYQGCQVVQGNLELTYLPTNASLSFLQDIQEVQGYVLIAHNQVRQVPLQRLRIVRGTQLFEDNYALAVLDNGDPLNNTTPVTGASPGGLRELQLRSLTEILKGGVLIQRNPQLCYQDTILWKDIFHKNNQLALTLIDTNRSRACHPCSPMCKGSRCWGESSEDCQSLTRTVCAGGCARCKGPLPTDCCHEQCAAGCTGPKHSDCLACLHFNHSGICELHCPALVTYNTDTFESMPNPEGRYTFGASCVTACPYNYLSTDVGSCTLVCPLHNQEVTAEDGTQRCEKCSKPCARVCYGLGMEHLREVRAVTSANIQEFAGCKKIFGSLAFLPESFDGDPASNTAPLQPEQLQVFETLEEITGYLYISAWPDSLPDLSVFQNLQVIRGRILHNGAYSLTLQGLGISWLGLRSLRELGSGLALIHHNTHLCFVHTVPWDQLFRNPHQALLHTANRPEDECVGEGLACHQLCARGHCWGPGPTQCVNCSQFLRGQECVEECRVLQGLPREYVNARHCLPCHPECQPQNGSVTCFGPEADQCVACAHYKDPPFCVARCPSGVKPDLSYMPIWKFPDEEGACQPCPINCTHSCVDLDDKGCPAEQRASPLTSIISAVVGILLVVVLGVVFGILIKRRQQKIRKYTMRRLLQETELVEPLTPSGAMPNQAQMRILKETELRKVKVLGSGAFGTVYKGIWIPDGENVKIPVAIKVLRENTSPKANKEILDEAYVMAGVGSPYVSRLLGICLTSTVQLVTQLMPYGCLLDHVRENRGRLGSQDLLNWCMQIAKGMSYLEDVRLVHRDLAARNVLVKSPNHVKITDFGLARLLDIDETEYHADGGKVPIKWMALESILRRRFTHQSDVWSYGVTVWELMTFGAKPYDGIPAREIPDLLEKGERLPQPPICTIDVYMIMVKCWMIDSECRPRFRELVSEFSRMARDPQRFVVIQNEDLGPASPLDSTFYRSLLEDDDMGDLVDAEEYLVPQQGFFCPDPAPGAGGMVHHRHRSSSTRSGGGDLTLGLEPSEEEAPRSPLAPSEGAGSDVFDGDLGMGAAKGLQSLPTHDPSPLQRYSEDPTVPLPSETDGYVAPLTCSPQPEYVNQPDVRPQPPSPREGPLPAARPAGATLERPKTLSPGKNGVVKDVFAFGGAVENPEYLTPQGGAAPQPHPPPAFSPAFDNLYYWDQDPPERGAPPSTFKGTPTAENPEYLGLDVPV
Settings: at 0.1 µM
Field: inhibition. Provide a value for each of the compounds that follow.
Number only, in %; omit the unit.

COc1ccc(-c2ccncc2)cc1C(N)=O yielded inhibition of 1.06

The reported inhibition of the compound CS(=O)(=O)CCN(CC#N)Cc1ccc(-c2ccc3ncnc(Nc4ccc(OCc5cccc(F)c5)c(Cl)c4)c3c2)o1 was 12.4

get_value(item= COc1ccc(-c2coc3ncnc(N)c23)cc1 , readout=inhibition) returns 0.31

Consider COc1cc2ncn(-c3cc(O[C@H](C)c4ccccc4Cl)c(C(N)=O)s3)c2cc1OC . Its measured inhibition is 2.23

Value of inhibition reported for the compound Cc1nn(C)c2cc(N(C)c3ccnc(Nc4cccc(S(N)(=O)=O)c4)n3)ccc12 is 3.03

The recorded inhibition for CNC(=O)c1cncc(/C=C/c2c(Cl)cccc2Cl)c1 is 3.2

Data point: CC1=C(C(=O)Nc2ccc3[nH]ncc3c2)C(c2ccc(F)cc2)NC(=O)N1 (configuration not stated) ; inhibition = -0.29

The compound COc1cc2c(cc1Nc1nc(N3CCc4ccccc43)c3cc[nH]c3n1)N(C(=O)CN(C)C)CC2 showed inhibition equal to 1.22

inhibition recorded for this compound, NCc1ccc(-c2nc(-c3ccc(Cl)c(O)c3)c(-c3ccncc3)[nH]2)cc1 , is -0.58

inhibition measured on Cc1cc(O)cc(C)c1/C=C/c1cncc(-c2nn[nH]n2)c1 = 1.86

// recorded inhibition for Nc1nc(-c2ccccn2)c(-c2ccc3ncccc3n2)s1 : 1.34

The compound listed as CS(=O)(=O)CCNCc1ccc(-c2ccc3ncnc(Nc4ccc(OCc5cccc(F)c5)c(C(F)(F)F)c4)c3c2)o1 shows inhibition equal to 3.41
